The reported numbers originate from patent EP1005460B1.

TESTED_SYSTEM: UniProtKB P35354
Sequence (P35354 18-604): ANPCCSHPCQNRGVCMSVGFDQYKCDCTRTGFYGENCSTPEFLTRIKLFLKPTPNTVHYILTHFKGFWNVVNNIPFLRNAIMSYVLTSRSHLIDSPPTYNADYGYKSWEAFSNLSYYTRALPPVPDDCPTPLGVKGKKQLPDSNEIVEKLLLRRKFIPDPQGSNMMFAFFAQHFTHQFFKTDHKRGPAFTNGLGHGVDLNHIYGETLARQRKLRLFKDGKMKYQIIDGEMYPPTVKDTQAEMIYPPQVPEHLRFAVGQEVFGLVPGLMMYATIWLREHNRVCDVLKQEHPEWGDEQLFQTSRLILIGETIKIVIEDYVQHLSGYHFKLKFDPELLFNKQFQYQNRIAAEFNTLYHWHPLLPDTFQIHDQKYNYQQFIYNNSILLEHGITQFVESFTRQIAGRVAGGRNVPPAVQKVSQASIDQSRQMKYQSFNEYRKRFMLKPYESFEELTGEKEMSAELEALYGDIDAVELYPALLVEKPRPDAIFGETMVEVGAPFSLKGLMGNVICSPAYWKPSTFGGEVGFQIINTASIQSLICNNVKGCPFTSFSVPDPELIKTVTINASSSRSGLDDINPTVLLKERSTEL
ASSAY_PROTOCOL: Recombinant human PGHS-2 (Cox-2) enzyme assay, PGE2 by EIA
Assay type: biochemical
Set-up: made in house; host or cells: baculovirus/Sf9 insect cells (microsomes)
CONDITION_SUMMARY: at 100 nM; microsomes, 60 min preincubation, 10 µM arachidonic acid; read-out: RHUCX2 Cox-2 percent inhibition
MEASURED_PROPERTY: inhibition at 0.1 µM (%)
Respond with the bare value in %.

## Task Which inhibition at 0.1 µM value is on record for CS(=O)(=O)c1ccc(-c2cc(=O)n(C3CCCC3)nc2-c2ccc(F)cc2)cc1 [Example 25] ?
## Result 42

## Task Which inhibition at 0.1 µM value is on record for CS(=O)(=O)c1ccc(-c2cc(=O)n(C3CCCCC3)nc2-c2ccc(F)cc2)cc1 [Example 18] ?
## Result 49

## Task Which inhibition at 0.1 µM value is on record for CCCCCn1nc(-c2ccc(F)cc2)c(-c2ccc(S(C)(=O)=O)cc2)cc1=O [Example 14] ?
## Result 66

## Task Which inhibition at 0.1 µM value is on record for CS(=O)(=O)c1ccc(-c2cc(=O)n(CC3CCCC3)nc2-c2ccc(F)cc2)cc1 [Example 24] ?
## Result 87

## Task Which inhibition at 0.1 µM value is on record for CCCCn1nc(-c2ccc(F)cc2)c(-c2ccc(S(C)(=O)=O)cc2)cc1=O [Example 11] ?
## Result 51

## Task Which inhibition at 0.1 µM value is on record for CS(=O)(=O)c1ccc(-c2cc(=O)n(Cc3ccc(F)cc3)nc2-c2ccc(F)cc2)cc1 [Example 10] ?
## Result 65

## Task Which inhibition at 0.1 µM value is on record for CC(C)=CCn1nc(-c2ccc(F)cc2)c(-c2ccc(S(C)(=O)=O)cc2)cc1=O [Example 21] ?
## Result 92
